Cited source: ChEMBL document CHEMBL3580634

# tested_target: Cannabinoid receptor 2 (Mus musculus, UniProt P47936)
# Sequence (P47936 whole entry): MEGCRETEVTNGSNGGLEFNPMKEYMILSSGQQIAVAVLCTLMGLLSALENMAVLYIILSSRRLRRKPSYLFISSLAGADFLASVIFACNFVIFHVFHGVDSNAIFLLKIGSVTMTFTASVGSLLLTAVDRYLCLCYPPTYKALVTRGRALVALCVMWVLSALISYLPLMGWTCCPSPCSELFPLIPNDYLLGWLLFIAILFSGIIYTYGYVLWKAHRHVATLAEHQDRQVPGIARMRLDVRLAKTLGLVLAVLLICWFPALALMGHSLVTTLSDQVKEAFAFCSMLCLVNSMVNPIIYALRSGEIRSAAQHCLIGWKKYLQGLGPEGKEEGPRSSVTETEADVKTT
# assay_summary: Displacement of [3H]CP-55,940 from mouse CB2 receptor expressed in CHO cell membranes
measured_attribute: log10 of Ki (log10 of the value in nM)
A difference of one corresponds to tenfold Ki; all values are log10 with Ki in nM.

Sample `CCC(CC)(NC(=O)c1ccc(N2CC(F)(F)C2)c(OCC2CC2)n1)C(=O)NC` — what was its log10 of Ki?
2.39

Check `COC1CN(c2ccc(C(=O)NC3(CC(N)=O)COC3)nc2OCC2CC2)C1` too.
3.49

Repeat for the following compound: `CCC(CC)(NC(=O)c1ccc(N2CC(F)(F)C2)c(OCC2CC2)n1)C(=O)NCCF`
2.61

And what about the compound `CCC(CC)(NC(=O)c1ccc(N2CC(OC)C2)c(OCC2CC2)n1)C(=O)NCCCF` ?
3.72

Also `CCOC(=O)C(CC)(CC)NC(=O)c1ccc(C2CCCC2)c(OCC2CC2)n1` , if possible.
1.59

Now consider `CCC(CC)(NC(=O)c1ccc(N2CC(OC)C2)c(OCC2CC2)n1)C(=O)N1CC(F)C1` and answer again.
0.84

Now consider `CCC(CC)(NC(=O)c1ccc(N2CC(OC)C2)c(OCC2CC2)n1)C(=O)NC` and answer again.
1.78

Another compound to look at: `CCOC(=O)C(CC)(CC)NC(=O)c1ccc(N2CC(OC)C2)c(OCC2CC2)n1`
0.26

Do the same for `COCCOCC(C)(C)c1cc(NC(=O)c2ccc(C3CCCC3)c(OCC3CC3)n2)on1` please
1.10

Also, `COC1CN(c2ccc(C(=O)NCC3(O)CCCCC3)nc2OCC2CC2)C1` please.
3.35
